All figures here come from ChEMBL document CHEMBL3046121.

Provide the reported MIC of each item.
Test system: Moraxella catarrhalis
Assay: Antibacterial activity against Moraxella catarrhalis ATCC 25238 assessed as growth inhibition after 24 hr by two-fold serial dilution method
Assay type: functional
Settings: ATCC 25238, 24 h
Give bare numbers, in µg/mL.

Observe how each entry below is paired with its result.
Param readout= MIC; system= Moraxella catarrhalis; entry= CCN(CC)Cc1cn(-c2cc3c(cc2F)c(=O)c(C(=O)O)cn3C2CC2)nn1 ; returns value.
16

Param readout= MIC; system= Moraxella catarrhalis; entry= COc1ccc(NCc2cn(-c3cc4c(cc3F)c(=O)c(C(=O)O)cn4C3CC3)nn2)cc1 ; returns value.
0.5

Alright, here's another compound for you.
Param readout= MIC; system= Moraxella catarrhalis; entry= CCCN(CCC)Cc1cn(-c2cc3c(cc2F)c(=O)c(C(=O)O)cn3C2CC2)nn1 ; returns value.
2

* * *

Provide the reported MIC of each item.
Tested on: Staphylococcus aureus
Test: Antibacterial activity against methicillin-sensitive Staphylococcus aureus ATCC 29213 assessed as growth inhibition after 24 hr by two-fold serial dilution method
Format: functional
Details: ATCC 29213, 24 h
// unit must come after the numeric part

Quick check: MIC of CN(C)Cc1cn(-c2cc3c(cc2F)c(=O)c(C(=O)O)cn3C2CC2)nn1 ?
4 µg/mL

Quick check: MIC of O=C(O)c1cn(C2CC2)c2cc(-n3cc(CNC4CC4)nn3)c(F)cc2c1=O ?
16 µg/mL

Quick check: MIC of O=C(O)c1cn(C2CC2)c2cc(-n3cc(CN4CCCC4)nn3)c(F)cc2c1=O ?
2 µg/mL

Alright, here's another compound for you.
Quick check: MIC of O=C(O)c1cn(C2CC2)c2cc(-n3cc(CN4CCCCC4)nn3)c(F)cc2c1=O ?
4 µg/mL
